Cited source for all entries: paper PMC5458078

# System: MCF7 cells
# Method Description: Quantitative nanoLC-MS/MS (TMT) of ADMA-containing peptides, CARM1 KO vs parental
# Assay type: cell-based, human
# Parameters: scale not given here
# Measurement Context: MCF7, CARM1 knockout vs wild type, n = 3 each
Dear colleague, classification is by Fold change KO/WT, with ranges listed here: low band (below -3), middle band (-3 to below -2), high band (-2 or more)

{"Substance": "GGAPFQFGGQrRPLLSQLK", "Category Label": "high band"}
{"Substance": "GGrGrGGSGGGGGGGGGGYNR", "Category Label": "high band"}
{"Substance": "SAPrLNTTNAWGAAPPSLGSQPLYR", "Category Label": "high band"}
{"Substance": "LFIGGLSFETTDDSLr", "Category Label": "high band"}
{"Substance": "ELAPrAHVLSK", "Category Label": "middle band"}
{"Substance": "LSAETWDLLrLPLER", "Category Label": "low band"}
{"Substance": "GILPMNPrNMMNHSQVGQGIGIPSR", "Category Label": "high band"}
{"Substance": "GQLFrLPSALNR", "Category Label": "low band"}
{"Substance": "YLQTVQYGVHGNFPrLSYPTFFPR", "Category Label": "middle band"}
{"Substance": "CrQPAPPTSQPPrAQPFAQPPGPWPLSSPGPrLVFNR", "Category Label": "low band"}

====

# Test system: MCF7 cells
# Method Description: Quantitative nanoLC-MS/MS (TMT) of ADMA-containing peptides, CARM1 KO vs parental
# Type: cell-based, human
# Parameters: scale not given here
# Measurement Context: MCF7, CARM1 knockout vs wild type, n = 3 each
Exam item: assign Criterion met to entries whose Fold change KO/WT is below -0.3 and Criterion not met to entries at or above -0.3. Note that a value of exactly -0.3 receives Criterion not met.

{"Substance": "EGAEGVNGGEESVNLNDADEGFSSGASLSSQPIGTKPSSSSQrGSLR", "Category Label": "Criterion not met"}
{"Substance": "GPVTPGGLPPrGLLGDAPNDPR", "Category Label": "Criterion met"}
{"Substance": "ErYLGGIK", "Category Label": "Criterion not met"}
{"Substance": "KLFIGGLSFETTDDSLr", "Category Label": "Criterion not met"}
{"Substance": "GGGSGNFMGrGGNFGGGGGNFGrGGNFGGrGGYGGGGGGSR", "Category Label": "Criterion not met"}
{"Substance": "SAGGRPGSGPQLGTGrGTLR", "Category Label": "Criterion met"}
{"Substance": "SIVPTMHYQDSLPrLPIPK", "Category Label": "Criterion met"}
{"Substance": "SHGYKPHFVPNFNGPNAIrQFQPNQINENWK", "Category Label": "Criterion met"}
{"Substance": "GPGGPrGGLGGGMR", "Category Label": "Criterion not met"}
{"Substance": "CAGFLEPTWLAAPPrLArPPrFYEAGEELTGPGAVAAAR", "Category Label": "Criterion met"}
{"Substance": "NPFLTGLSAPSPTNPFGAGEPGrPTLNQMR", "Category Label": "Criterion met"}
{"Substance": "STNPELPPrLGPVPSGLSQK", "Category Label": "Criterion met"}
{"Substance": "LHrSPLTFPAWVrPPEAAR", "Category Label": "Criterion met"}
{"Substance": "VPrFSSLSSCNPPAMATSAEK", "Category Label": "Criterion met"}
{"Substance": "SNSGPYrGGYGGGGGYGGSSF", "Category Label": "Criterion not met"}
{"Substance": "NDTKDDLGNLNVPDSSLPAENEATGPGFVPPPLAPIrGPLFPVDArGPFLR", "Category Label": "Criterion met"}
{"Substance": "LLFQNLWKPrLNVP", "Category Label": "Criterion met"}
{"Substance": "QSHTLPFPPPPALPFYPASAYPrHFGPVPPSQGR", "Category Label": "Criterion met"}
{"Substance": "DPFSQALSrCQLQQAAALNAQHK", "Category Label": "Criterion met"}
{"Substance": "SGFAATSQPGPrLPFIQHSQNPrFYHK", "Category Label": "Criterion met"}
{"Substance": "AYSSFGGGrGSR", "Category Label": "Criterion not met"}
{"Substance": "LRGPGGPrGGLGGGMR", "Category Label": "Criterion not met"}
{"Substance": "GrFPGAVPGGDrFPGPAGPGGPPPPFPGNLIK", "Category Label": "Criterion met"}
{"Substance": "KPPNQSLPLQPFQLAFGHQVNrQVFrQGPPPPNPVAAFPPQK", "Category Label": "Criterion met"}
{"Substance": "DYFPPGDFPGPPPAPFAMrNVYPPrGFPPYLPPrPGFFPPPPHSEGR", "Category Label": "Criterion met"}
{"Substance": "TRNPFLTGLSAPSPTNPFGAGEPGrPTLNQMR", "Category Label": "Criterion met"}
{"Substance": "SGSGNFGGGrGGGFGGNDNFGrGGNFSGrGGFGGSR", "Category Label": "Criterion not met"}
{"Substance": "GrGFAGVCGFGGPYGETVATGPYrAFR", "Category Label": "Criterion met"}
{"Substance": "KPLGTAPHCPrLPLR", "Category Label": "Criterion met"}

====

# System: MCF7 cells
# Method Description: Quantitative nanoLC-MS/MS (TMT) of ADMA-containing peptides, CARM1 KO vs parental
# Assay type: cell-based, human
# Parameters: scale not given here
# Measurement Context: CARM1 KO vs wild type MCF7 cells, 3 biological replicates each
Exam item: assign 1 (yes) to entries whose Fold change KO/WT is below -2 and 0 (no) to entries at or above -2. Note that a value of exactly -2 receives 0 (no).

{"Substance": "AAGMTPLYAGQrLPQHGYPGPPQAQPLPrQGVK", "Category Label": "0 (no)"}
{"Substance": "IPGIPrHSGPQYSMMQPHLQR", "Category Label": "0 (no)"}
{"Substance": "PVPPPPAPPPPPTFALANTEKPTLNKTEQAGrNALLSDISK", "Category Label": "0 (no)"}
{"Substance": "VIGTAVArYNFAAR", "Category Label": "1 (yes)"}
{"Substance": "LTVPrYSIPTGDPPPYPEIASQLAQGR", "Category Label": "1 (yes)"}

====

# reported KO/WT; entries follow
# System: MCF7 CARM1 KO cells
# Method Description: Quantitative MS of ADMA-containing peptides in MCF7 CARM1 KO cells expressing CARM1 28-608 or CARM1 140-608, and in CARM1 KO
# Type: cell-based, human
# Measurement Context: mean, CARM1 KO versus WT (log2 scale)
Endpoint: KO/WT

{"Substance": "LYrYSPQSFLPDSTIQK", "Reported Value": -2.857}
{"Substance": "GFYPQYGALETrGGFNPR", "Reported Value": -0.432}
{"Substance": "NAALGPSEPrLALAPVGPrAAMSASSEGPrLALASPrPILAPLCTPEGQK", "Reported Value": -3.912}
{"Substance": "VPrFSSLSSCNPPAMATSAEK", "Reported Value": -1.804}
{"Substance": "ASrGrGGLGPSWASANSGSGGSrGK", "Reported Value": 0.5944}
{"Substance": "QPVPFGLVrFGVAPDHPEVK", "Reported Value": -1.677}
{"Substance": "LLGQRPGPYDRPIGGrGGYYGAGrGSMYDR", "Reported Value": 1.04}

====

# Test system: MCF7 CARM1 KO cells
# Method Description: Quantitative MS of ADMA-containing peptides in MCF7 CARM1 KO cells expressing CARM1 28-608 or CARM1 140-608, and in CARM1 KO
# Format: cell-based, human
Label rule, in plain words: CARM1 140-608/WT of -2 and up is Criterion met, under -2 is Criterion not met.

{"Substance": "LGQDPYrLGHDPYR", "Category Label": "Criterion met"}
{"Substance": "LAQDPYrLGHDPYR", "Category Label": "Criterion met"}
{"Substance": "QLQLQQQrMQLAQK", "Category Label": "Criterion not met"}
{"Substance": "SPFLGSArPrLR", "Category Label": "Criterion met"}
{"Substance": "LGHDAYrLGQDPYR", "Category Label": "Criterion met"}
{"Substance": "ISSSSFSrVGSSNFR", "Category Label": "Criterion not met"}
{"Substance": "LGHDPYrLGHDAYrLGQDPYrLGHDPYR", "Category Label": "Criterion met"}
{"Substance": "GMYNQrYHCPVPK", "Category Label": "Criterion not met"}

====

# System: MCF7 CARM1 KO cells
# Method Description: Quantitative MS of ADMA-containing peptides in MCF7 CARM1 KO cells expressing CARM1 28-608 or CARM1 140-608, and in CARM1 KO
# Assay type: cell-based, human
# Measurement Context: ratio on log2 scale, mean of 3 replicates
Label rule, in plain words: CARM1 140-608/WT of -1 and up is TRUE, under -1 is FALSE.

{"Substance": "FGGPVHHQAQrFR", "System Under Test": "MCF7 CARM1 KO cells", "Category Label": "TRUE"}
{"Substance": "APPVrYCIPGER", "System Under Test": "MCF7 CARM1 KO cells", "Category Label": "FALSE"}
{"Substance": "GILPMNPrNMMNHSQVGQGIGIPSR", "System Under Test": "MCF7 CARM1 KO cells", "Category Label": "FALSE"}
{"Substance": "DYFPPGDFPGPPPAPFAMrNVYPPrGFPPYLPPrPGFFPPPPHSEGR", "System Under Test": "MCF7 CARM1 KO cells", "Category Label": "TRUE"}
{"Substance": "SAPrLNTTNAWGAAPPSLGSQPLYR", "System Under Test": "MCF7 CARM1 KO cells", "Category Label": "TRUE"}
{"Substance": "FSPNPPQQGAVrPQTLNFSSR", "System Under Test": "MCF7 CARM1 KO cells", "Category Label": "TRUE"}
{"Substance": "ErYLGGIK", "System Under Test": "MCF7 CARM1 KO cells", "Category Label": "TRUE"}
{"Substance": "LQEVSLrQGMr", "System Under Test": "MCF7 CARM1 KO cells", "Category Label": "TRUE"}
{"Substance": "SHGYKPHFVPNFNGPNAIrQFQPNQINENWK", "System Under Test": "MCF7 CARM1 KO cells", "Category Label": "FALSE"}
{"Substance": "GPPLArLPHDPGVFR", "System Under Test": "MCF7 CARM1 KO cells", "Category Label": "FALSE"}
